These entries and their values trace back to ChEMBL document CHEMBL3232966.

- assay.comment: Cytotoxicity against human MT4 cells assessed as cell viability by MTT assay
- Format: cell-based
Field: CC50. Provide a value for each of the compounds that follow.
Report the value in µM with no unit label.

In: Look up CC50: O=C(O)/C(O)=C/C(=O)c1cn(Cc2ccc(C(F)(F)F)cc2)c2ccc(Cl)cc12
Out: 23

In: Look up CC50: Cc1cc(C)c(Cn2cc(C(=O)C3=C(O)C(=O)OC3)c3cc(Cl)ccc32)c(C)c1
Out: 40.5

In: Look up CC50: Cc1cc(C)cc(Cn2cc(C(=O)C3=C(O)C(=O)OC3)c3cc(Cl)ccc32)c1
Out: 53.5

In: Look up CC50: Cc1cc(C)c(Cn2cc(C(=O)/C=C(\O)C(=O)O)c3cc(F)ccc32)c(C)c1
Out: 104

In: Look up CC50: Cc1cc(C)cc(Cn2cc(C(=O)/C=C(\O)C(=O)O)c3c(O)cccc32)c1
Out: 44

In: Look up CC50: COc1ccc2c(c1)c(C(=O)/C=C(\O)C(=O)O)cn2Cc1cc(C)cc(C)c1
Out: 51

In: Look up CC50: COc1ccc2c(c1)c(C(=O)/C=C(\O)C(=O)O)cn2Cc1c(C)cc(C)cc1C
Out: 23.5

In: Look up CC50: CC(C)(C)c1ccc(Cn2cc(C(=O)C3=C(O)C(=O)OC3)c3cc(Cl)ccc32)cc1
Out: 53

In: Look up CC50: O=C(O)/C(O)=C/C(=O)c1cn(Cc2ccc(C(F)(F)F)cc2)c2ccc(F)cc12
Out: 15

In: Look up CC50: Cc1cc(C)c(Cn2cc(C(=O)C3=C(O)C(=O)OC3)c3cc(F)ccc32)c(C)c1
Out: 107
